Biological target: VIM-1 (Pseudomonas aeruginosa (strain ATCC 15692 / DSM 22644 / CIP 104116 / JCM 14847 / LMG 12228 / 1C / PRS 101 / PAO1))
Assay: biochemical
Conditions: VIM-1 IC50, fluorescence assay, CCF2-FA substrate, 30 pM enzyme, 2 hours at 25° C.
Measured IC50, listed per entry for reference.

# compound, IC50, pM
records = [
    ("Nc1nc2c(-c3ccc(S(=O)(=O)N[C@H]4CCCNC4)c(S(N)(=O)=O)c3-c3nnn[nH]3)cccc2s1", 271),
    ("Nc1nc2c(-c3ccc(S(=O)(=O)NCC4CNCCO4)c(S(N)(=O)=O)c3-c3nnn[nH]3)cccc2s1.O=C(O)C(F)(F)F (stereo not drawn) [Example 112, 2,2,2-trifluoroacetate]", 219),
    ("NC[C@@H](CO)NS(=O)(=O)c1ccc(-c2cccc3sc(N)nc23)c(-c2nnn[nH]2)c1S(N)(=O)=O", 125),
]
